B1: SNAP91 (parent)
chain: FATASAAVPVSTSKPSSDLLDLQP

# Variants of: B1
# experimental-protocol: protein stability index of a GFP-peptide fusion (GPS, HEK-293T) (PSI 1-6); higher = more stable;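 further: lentivirally expressed fusions sorted by FACS into six bins by GFP to DsRed ratio, PSI derived from sequencing read proportions per bin multiplied by bin number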
# assay-conditions: c terminus: a fixed tail appended
assay-endpoint: protein stability index
One number for each entry.

# variant-designation, value-measured
rows = [
    ("D18S", 2.99),
    ("V10Q", 4.61),
    ("P15H", 3.96),
]

// Input: P9E . Output its protein stability index only.
3.99
